# Species: Rattus norvegicus
# assay.explanation: Selectivity index, ratio of IC50 for Sprague-Dawley rat brain heme oxygenase-2 to IC50 for Sprague-Dawley rat spleen heme oxygenase-1
# Format: tissue-based
readout.type: Ratio IC50

Sample records with Ratio IC50:
compound | Ratio IC50
N#Cc1ccc(OCC2CO[C@@](CCc3ccc(Cl)cc3)(Cn3ccnc3)O2)cc1 (single isomer, unassigned) | 2.5
Fc1ccc(OCC2CO[C@@](CCc3ccc(Cl)cc3)(Cn3ccnc3)O2)cc1 (single isomer, unassigned) | 2
CSC[C@@H]1CO[C@@](CCc2ccc(Cl)cc2)(Cn2ccnc2)O1 | 2
ClC[C@@H]1CO[C@@](CCc2ccc(Cl)cc2)(Cn2ccnc2)O1 | 35
Clc1ccc(CC[C@@]2(Cn3ccnc3)OCC(COc3ccc(Br)cc3)O2)cc1 (single isomer, unassigned) | 6.3

P = Oc1ccc(SC[C@@H]2CO[C@@](CCc3ccc(Cl)cc3)(Cn3ccnc3)O2)cc1
Q = C[C@@H]1CO[C@@](CCc2ccc(Cl)cc2)(Cn2ccnc2)O1
*Q* Select the item whose Ratio IC50 value is smaller, choosing between P and Q . Bench note: the answer is the label of the chosen record.
*A* P

====

# Species: Rattus norvegicus
# assay.explanation: Selectivity index, ratio of IC50 for Sprague-Dawley rat brain heme oxygenase-2 to IC50 for Sprague-Dawley rat spleen heme oxygenase-1
# Type: tissue-based
readout.type: Ratio IC50

Worked examples, 4 compounds total:
compound | Ratio IC50
Nc1ccccc1SC[C@@H]1CO[C@@](CCc2ccc(Cl)cc2)(Cn2ccnc2)O1 | 10
COC[C@@H]1CO[C@@](CCc2ccc(Cl)cc2)(Cn2ccnc2)O1 | 1.9
Clc1ccc(CC[C@@]2(Cn3ccnc3)OC[C@@H](CSc3ccccc3Br)O2)cc1 | 2
FC(F)(F)c1ccc(SC[C@@H]2CO[C@@](CCc3ccc(Cl)cc3)(Cn3ccnc3)O2)nc1 | 7.6

I = Clc1ccc(CC[C@@]2(Cn3ccnc3)OC[C@@H](CSC3CCCCC3)O2)cc1
II = Clc1ccc(CC[C@@]2(Cn3ccnc3)OCC(COc3ccc(I)cc3)O2)cc1 (single isomer, unassigned)
III = Nc1ccc(SC[C@@H]2CO[C@@](CCc3ccc(Cl)cc3)(Cn3ccnc3)O2)cc1
*Q* Rank entries according to their Ratio IC50, from the largest number down. Please respond by ranking the labels in the order requested.
*A* III, I, II
(III: 20, I: 14, II: 2)
